These data points were gathered from patent US20190134153A1.

# Assay System: NEK3(h) (Homo sapiens, UniProt P51956)
# Sequence (P51956 1-506): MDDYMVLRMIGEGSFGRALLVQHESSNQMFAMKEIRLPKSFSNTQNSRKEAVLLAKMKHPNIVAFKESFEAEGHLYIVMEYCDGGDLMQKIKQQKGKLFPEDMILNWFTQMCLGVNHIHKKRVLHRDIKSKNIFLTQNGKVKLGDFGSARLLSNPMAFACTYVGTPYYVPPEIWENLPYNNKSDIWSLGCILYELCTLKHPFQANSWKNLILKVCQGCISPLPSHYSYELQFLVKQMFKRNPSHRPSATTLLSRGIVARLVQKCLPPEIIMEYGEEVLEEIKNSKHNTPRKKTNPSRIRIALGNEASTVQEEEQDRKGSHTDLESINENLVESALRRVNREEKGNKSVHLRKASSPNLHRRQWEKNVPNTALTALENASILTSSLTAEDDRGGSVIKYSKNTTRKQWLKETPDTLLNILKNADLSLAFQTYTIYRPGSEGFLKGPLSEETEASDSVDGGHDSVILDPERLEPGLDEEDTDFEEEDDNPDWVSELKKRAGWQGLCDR
# Assay Remarks: Kinase Profiling Assay
# Assay type: biochemical
# Condition Label: 100 μM
I'd appreciate it if you could supply % activity values for the items below.
Output spec: scalar in %, unitless text.

Item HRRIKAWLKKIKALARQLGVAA [MMI-0500] has what recorded % activity?
20

Item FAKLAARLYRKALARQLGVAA [MMI-0300] has what recorded % activity?
92

Item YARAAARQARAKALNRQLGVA [MMI-0200] has what recorded % activity?
100

Item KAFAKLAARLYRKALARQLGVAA [MMI-0400] has what recorded % activity?
85

====

# Assay System: GRK6(h) (Homo sapiens, UniProt P43250)
# Sequence (P43250 whole entry): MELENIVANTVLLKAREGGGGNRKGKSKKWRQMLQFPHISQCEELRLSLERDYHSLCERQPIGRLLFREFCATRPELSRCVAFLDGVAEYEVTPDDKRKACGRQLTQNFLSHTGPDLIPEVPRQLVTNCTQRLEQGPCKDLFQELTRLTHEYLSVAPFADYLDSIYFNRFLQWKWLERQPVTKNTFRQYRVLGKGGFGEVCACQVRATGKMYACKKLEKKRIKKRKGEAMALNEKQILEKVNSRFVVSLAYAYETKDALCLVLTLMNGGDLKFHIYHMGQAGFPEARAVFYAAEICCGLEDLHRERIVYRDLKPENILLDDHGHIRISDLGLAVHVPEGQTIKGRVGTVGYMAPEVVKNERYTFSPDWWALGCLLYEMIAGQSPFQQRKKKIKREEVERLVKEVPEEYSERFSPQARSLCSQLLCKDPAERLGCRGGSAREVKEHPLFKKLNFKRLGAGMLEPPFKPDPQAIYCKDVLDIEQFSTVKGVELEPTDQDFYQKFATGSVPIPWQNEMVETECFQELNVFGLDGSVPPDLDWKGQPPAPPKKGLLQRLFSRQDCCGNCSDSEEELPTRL
# Assay Remarks: Kinase Profiling Assay
# Type: biochemical
# Condition Label: 100 μM
I'd appreciate it if you could supply % activity values for the items below.

Item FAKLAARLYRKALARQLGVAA [MMI-0300] has what recorded % activity?
147%

Item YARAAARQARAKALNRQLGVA [MMI-0200] has what recorded % activity?
132%

Item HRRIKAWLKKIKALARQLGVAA [MMI-0500] has what recorded % activity?
174%

Item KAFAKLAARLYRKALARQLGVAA [MMI-0400] has what recorded % activity?
141%

====

# Assay System: mTOR(h) (Homo sapiens, UniProt P42345)
# Assay Remarks: Kinase Profiling Assay
# Assay type: biochemical
# Condition Label: 100 μM
Reported Metric: % activity (%)
Output spec: scalar in %, unitless text.

Item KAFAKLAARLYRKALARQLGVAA [MMI-0400] has what recorded % activity?
93

Item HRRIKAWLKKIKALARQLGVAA [MMI-0500] has what recorded % activity?
135

Item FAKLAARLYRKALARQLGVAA [MMI-0300] has what recorded % activity?
91

Item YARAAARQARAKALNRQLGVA [MMI-0200] has what recorded % activity?
110

====

I'd appreciate it if you could supply % activity values for the items below.
# Assay System: PTK5(h) (Homo sapiens)
# Sequence (P42685 whole entry): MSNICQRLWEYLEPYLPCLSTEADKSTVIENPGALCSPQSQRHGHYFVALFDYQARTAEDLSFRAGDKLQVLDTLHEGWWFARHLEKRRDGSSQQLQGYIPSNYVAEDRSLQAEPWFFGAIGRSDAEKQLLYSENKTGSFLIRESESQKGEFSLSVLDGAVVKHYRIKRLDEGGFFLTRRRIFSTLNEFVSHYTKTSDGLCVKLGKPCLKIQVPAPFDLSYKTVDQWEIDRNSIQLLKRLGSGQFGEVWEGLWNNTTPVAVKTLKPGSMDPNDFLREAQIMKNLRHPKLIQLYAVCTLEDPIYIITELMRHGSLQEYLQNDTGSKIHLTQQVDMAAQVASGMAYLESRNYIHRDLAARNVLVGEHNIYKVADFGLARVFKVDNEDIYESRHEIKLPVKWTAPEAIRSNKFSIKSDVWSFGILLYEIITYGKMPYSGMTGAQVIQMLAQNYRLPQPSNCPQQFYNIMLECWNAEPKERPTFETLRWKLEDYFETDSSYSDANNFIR
# Assay Remarks: Kinase Profiling Assay
# Format: biochemical
# Condition Label: 100 μM
Output spec: scalar in %, unitless text.

Item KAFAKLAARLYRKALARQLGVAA [MMI-0400] has what recorded % activity?
129

Item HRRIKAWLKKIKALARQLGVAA [MMI-0500] has what recorded % activity?
96

Item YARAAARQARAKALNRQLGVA [MMI-0200] has what recorded % activity?
108

Item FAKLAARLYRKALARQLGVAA [MMI-0300] has what recorded % activity?
132

====

# Assay System: TrkB(h) (Homo sapiens, UniProt Q16620)
# Assay Remarks: Kinase Profiling Assay
# Format: biochemical
# Condition Label: 100 μM
Reported Metric: % activity (%)
Output spec: scalar in %, unitless text.

Item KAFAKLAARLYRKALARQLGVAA [MMI-0400] has what recorded % activity?
8

Item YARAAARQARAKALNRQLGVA [MMI-0200] has what recorded % activity?
7

Item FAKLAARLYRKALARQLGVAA [MMI-0300] has what recorded % activity?
5

Item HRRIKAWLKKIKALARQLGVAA [MMI-0500] has what recorded % activity?
12

====

# Assay System: ASK1(h) (Homo sapiens)
# Sequence (Q99683 1-1374): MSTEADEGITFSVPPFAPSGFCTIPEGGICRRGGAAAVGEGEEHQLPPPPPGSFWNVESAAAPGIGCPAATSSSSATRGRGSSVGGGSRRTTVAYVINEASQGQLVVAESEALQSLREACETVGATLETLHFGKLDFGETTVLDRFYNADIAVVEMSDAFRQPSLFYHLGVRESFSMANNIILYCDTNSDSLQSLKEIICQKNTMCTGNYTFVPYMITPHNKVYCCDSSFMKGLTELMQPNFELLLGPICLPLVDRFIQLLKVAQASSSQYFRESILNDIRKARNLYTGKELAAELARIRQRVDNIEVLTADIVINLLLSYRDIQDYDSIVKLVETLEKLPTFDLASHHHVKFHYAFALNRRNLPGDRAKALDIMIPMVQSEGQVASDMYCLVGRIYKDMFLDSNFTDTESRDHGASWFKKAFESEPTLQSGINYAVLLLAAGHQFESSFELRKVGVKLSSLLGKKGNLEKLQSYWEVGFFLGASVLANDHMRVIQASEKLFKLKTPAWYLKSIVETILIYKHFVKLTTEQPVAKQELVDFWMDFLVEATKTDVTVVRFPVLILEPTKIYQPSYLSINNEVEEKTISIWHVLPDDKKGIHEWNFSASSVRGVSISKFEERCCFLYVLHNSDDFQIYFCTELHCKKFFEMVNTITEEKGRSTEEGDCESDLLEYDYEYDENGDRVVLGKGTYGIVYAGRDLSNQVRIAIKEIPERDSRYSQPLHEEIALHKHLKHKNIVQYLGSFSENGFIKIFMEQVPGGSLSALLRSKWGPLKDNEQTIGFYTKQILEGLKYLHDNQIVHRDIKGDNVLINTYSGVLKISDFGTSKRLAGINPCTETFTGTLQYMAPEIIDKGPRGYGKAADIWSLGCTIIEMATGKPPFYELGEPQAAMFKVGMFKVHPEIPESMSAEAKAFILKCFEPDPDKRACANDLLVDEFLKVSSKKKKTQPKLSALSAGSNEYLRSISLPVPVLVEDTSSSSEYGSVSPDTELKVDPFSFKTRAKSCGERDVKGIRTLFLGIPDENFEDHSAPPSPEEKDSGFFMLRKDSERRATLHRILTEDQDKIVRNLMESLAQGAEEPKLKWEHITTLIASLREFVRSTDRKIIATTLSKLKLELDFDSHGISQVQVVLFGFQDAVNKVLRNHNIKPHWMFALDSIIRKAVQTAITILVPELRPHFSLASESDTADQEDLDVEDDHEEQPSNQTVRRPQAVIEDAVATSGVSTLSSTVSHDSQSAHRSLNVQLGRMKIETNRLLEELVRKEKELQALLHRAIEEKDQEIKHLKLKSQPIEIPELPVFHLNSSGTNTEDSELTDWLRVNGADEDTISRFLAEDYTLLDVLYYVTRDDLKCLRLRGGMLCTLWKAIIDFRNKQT
# Assay Remarks: Kinase Profiling Assay
# Assay type: biochemical
# Condition Label: 100 μM
Reported Metric: % activity (%)
Output spec: scalar in %, unitless text.

Item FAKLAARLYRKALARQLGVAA [MMI-0300] has what recorded % activity?
80

Item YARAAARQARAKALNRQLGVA [MMI-0200] has what recorded % activity?
101

Item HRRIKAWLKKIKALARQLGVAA [MMI-0500] has what recorded % activity?
−4

Item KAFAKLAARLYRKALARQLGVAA [MMI-0400] has what recorded % activity?
69

====

I'd appreciate it if you could supply % activity values for the items below.
# Assay System: CK2(h) (Homo sapiens, UniProt P68400)
# Sequence (P68400 whole entry): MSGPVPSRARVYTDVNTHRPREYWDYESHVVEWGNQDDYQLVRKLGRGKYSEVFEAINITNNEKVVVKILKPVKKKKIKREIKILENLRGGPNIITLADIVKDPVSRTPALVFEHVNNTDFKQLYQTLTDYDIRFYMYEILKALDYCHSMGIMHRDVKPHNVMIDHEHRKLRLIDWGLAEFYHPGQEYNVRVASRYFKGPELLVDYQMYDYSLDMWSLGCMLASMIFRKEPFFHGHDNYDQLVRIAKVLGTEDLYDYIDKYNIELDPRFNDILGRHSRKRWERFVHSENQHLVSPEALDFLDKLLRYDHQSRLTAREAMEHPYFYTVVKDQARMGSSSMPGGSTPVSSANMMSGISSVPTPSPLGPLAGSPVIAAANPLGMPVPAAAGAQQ
# Sequence (P67870 whole entry partner): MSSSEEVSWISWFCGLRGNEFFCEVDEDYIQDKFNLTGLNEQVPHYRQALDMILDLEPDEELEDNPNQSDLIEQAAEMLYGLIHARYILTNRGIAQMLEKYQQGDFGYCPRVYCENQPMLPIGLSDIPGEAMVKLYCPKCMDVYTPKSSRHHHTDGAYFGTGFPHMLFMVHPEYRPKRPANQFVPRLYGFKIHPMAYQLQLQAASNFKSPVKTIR
# Assay Remarks: Kinase Profiling Assay
# Assay type: biochemical
# Condition Label: 100 μM

GET /values?readout=% activity&system=CK2(h) (Homo sapiens, UniProt P68400)&item= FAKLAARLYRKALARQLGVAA [MMI-0300]
90%

GET /values?readout=% activity&system=CK2(h) (Homo sapiens, UniProt P68400)&item= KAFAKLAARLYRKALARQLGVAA [MMI-0400]
101%

GET /values?readout=% activity&system=CK2(h) (Homo sapiens, UniProt P68400)&item= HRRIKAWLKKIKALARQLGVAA [MMI-0500]
93%

GET /values?readout=% activity&system=CK2(h) (Homo sapiens, UniProt P68400)&item= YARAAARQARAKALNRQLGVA [MMI-0200]
83%

====

I'd appreciate it if you could supply % activity values for the items below.
# Assay System: IRAK1(h) (Homo sapiens, UniProt P51617)
# Sequence (P51617 whole entry): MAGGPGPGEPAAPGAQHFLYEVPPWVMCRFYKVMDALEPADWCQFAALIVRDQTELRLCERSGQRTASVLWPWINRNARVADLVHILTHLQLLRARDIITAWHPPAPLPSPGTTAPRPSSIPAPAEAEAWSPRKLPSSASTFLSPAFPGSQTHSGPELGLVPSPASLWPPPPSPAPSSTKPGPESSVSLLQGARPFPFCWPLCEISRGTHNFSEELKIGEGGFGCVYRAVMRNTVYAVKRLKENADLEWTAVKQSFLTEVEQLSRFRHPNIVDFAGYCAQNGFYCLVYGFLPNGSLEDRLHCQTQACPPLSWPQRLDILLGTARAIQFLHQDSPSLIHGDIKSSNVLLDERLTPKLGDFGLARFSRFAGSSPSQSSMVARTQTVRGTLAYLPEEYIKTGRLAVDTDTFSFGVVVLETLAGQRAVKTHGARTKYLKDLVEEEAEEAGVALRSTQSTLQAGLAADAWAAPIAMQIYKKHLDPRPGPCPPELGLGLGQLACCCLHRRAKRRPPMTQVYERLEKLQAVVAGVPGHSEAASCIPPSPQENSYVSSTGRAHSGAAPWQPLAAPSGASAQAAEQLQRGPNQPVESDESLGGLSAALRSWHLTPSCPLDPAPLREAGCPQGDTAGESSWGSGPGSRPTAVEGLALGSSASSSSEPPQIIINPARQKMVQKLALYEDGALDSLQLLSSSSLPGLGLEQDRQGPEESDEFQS
# Assay Remarks: Kinase Profiling Assay
# Assay type: biochemical
# Condition Label: 100 μM
Output spec: scalar in %, unitless text.

Item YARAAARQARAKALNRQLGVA [MMI-0200] has what recorded % activity?
101

Item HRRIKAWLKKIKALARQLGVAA [MMI-0500] has what recorded % activity?
5

Item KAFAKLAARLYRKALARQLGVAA [MMI-0400] has what recorded % activity?
93

Item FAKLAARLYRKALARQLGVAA [MMI-0300] has what recorded % activity?
95
